targetOrSystem: T1, human CD3 (human, UniProt P07766 23-207; P09693 23-182; P04234 22-171)
T1 construct: whole, on cells; also called CD3 on Jurkat T cells; CD3 on primary human T cells
assaySummary: flow competition on Jurkat, 100 nM unlabeled mAb; competitor AF488-SK7 1.5 nM
# % residual fluorescence of labeled mAb per record follows
Give just the number in %; leave the unit off.

Consider the following illustrative entries.
- binder: "F332-8F7 (antibody, mouse IgG2a, V domains shown, also called F332-8F7-3) VH: QVQLQQPGAELGKPGTSVKLSCKASGYTFTSYWIHWVKQRPGQGLEWIGNINPNSGSTNYNEKFKNKATLTVDKSSSTASMQLSTLTSEDSAVYYCTRDISGQYYFDYWGQGTTLTVSS VL: DIVMSQSPSSLAVSTGGEVTMSCKSSQSLLNSRTRKNYLAWYQQKPGQSPKLLIYWASTRESGVPDRFTGSGSGTDFTLTISSVQAEDLAVYYCIQSYSLRTFGGGTKLGIK"
  % residual fluorescence of labeled mAb [%]: 39
- binder: "F282-2D5 (antibody, V domains shown, also called F282-2D5-2) VH: QVQLQQPGTELVKPGASVKLSCKASGYTFTSYWMHWVKQRPGQGLEWIGNINPSNGGTNYNENFKTKATLTVDKSSSTAYMQLSSLTSEDSAVYYCARDRSGQYYFDYWGQGTTLTVSS VL: DIVMSQSPSSLAVSAGEKVTMSCKSSQSLLNSRTRKNYLAWYQQKPGQSPKLLIYWASTRESGVPDRFTGSGSGTDFTLTISSVQAEDLAVYYCIQSYHLRTFGGGTILEIK"
  % residual fluorescence of labeled mAb [%]: 42

Recorded % residual fluorescence of labeled mAb (binder F332-3E9 (antibody, mouse IgG2a, V domains shown, also called F332-3E9-2; F332-3E9 (12G4)) VH: QVQLQQPGAELGKPGTSVKLSCKASGYTFTSYWIHWLKQRPGQGLEWIGNINPNGGSINCNEKFTTKATLTIDKSSSTAYMQLSTLTSEDFAVYYCTRDTSGQYYFDYWGQGTTLTVSS VL: DIMMSQSPSSLAVSAGEKVTMSCKSSQSLLNSRTRKNYLAWYQQKPGQSPKLLIYWASTRESGVPDRFTGSGSGTDFTLTISSVQAEDLAVYYCTQSYHLRTFGGGTKLEIK ): 45
